System: c-Abl (mouse);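 note: 11-residue human phosphosite peptides and single-mutation variants displayed on the E. coli surface, counted by deep sequencing, each peptide's frequency after selection divided by its frequency in the unselected input library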;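 note: frequency after pTyr selection over input frequency; kinase dosed for 20-30% of maximal phosphorylation in three min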
Test: phosphorylation enrichment, bacterial display (enrichment ratio); higher = better substrate or ligand; peptides without Tyr show the background
Class class 1: phosphorylation enrichment at least 0.7. Class class 0: phosphorylation enrichment below 0.7.

Please indicate if the recorded phosphorylation enrichment for RRNEEYCLLAS [ITK_Y198_D202A] meets or exceeds 0.7.
class 0

Please indicate if the recorded phosphorylation enrichment for IGEGTYGVVYK [CDK2_Y15] meets or exceeds 0.7.
class 0

Please indicate if the recorded phosphorylation enrichment for VILENYGADID [DNAH5_Y596_L591V] meets or exceeds 0.7.
class 0

Please indicate if the recorded phosphorylation enrichment for PFRFIYMAVQH [PTPN11_Y515_Q510P_YF] meets or exceeds 0.7.
class 1

Please indicate if the recorded phosphorylation enrichment for FAGRDYSLDEF [MYOF_Y1705_G1701A_YF] meets or exceeds 0.7.
class 0

Please indicate if the recorded phosphorylation enrichment for KGSEGYLAAIF [NF1_Y2503_T2507I_YF] meets or exceeds 0.7.
class 0

Please indicate if the recorded phosphorylation enrichment for DDDPEDRKFLE [UPF3B_Y160_Y160D] meets or exceeds 0.7.
class 1

Please indicate if the recorded phosphorylation enrichment for SSQAHYRLSAF [ADAMTS9_Y100] meets or exceeds 0.7.
class 0

Please indicate if the recorded phosphorylation enrichment for QNTGDDFDLFG [PTPN11_Y62_Y62D_YF] meets or exceeds 0.7.
class 1

Please indicate if the recorded phosphorylation enrichment for LRRREYQRQDF [PRKRIP1_Y90_YF] meets or exceeds 0.7.
class 1

Please indicate if the recorded phosphorylation enrichment for RKGGSYTQAAS [HLA-A_Y344] meets or exceeds 0.7.
class 1

Please indicate if the recorded phosphorylation enrichment for ISKQEYDEAGP [ACTC1_Y364] meets or exceeds 0.7.
class 1

Please indicate if the recorded phosphorylation enrichment for RGRSTCYWPRP [GAGE12J_Y9_Y9C] meets or exceeds 0.7.
class 0
